B1: tRNA (parent)
chain: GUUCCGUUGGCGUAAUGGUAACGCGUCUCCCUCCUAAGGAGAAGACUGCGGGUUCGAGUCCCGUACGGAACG

Variants of: B1
Assay: yeast fitness, log relative to wild type (ln ratio); higher = fitter; tRNA-Arg(CCU), competitive growth, 37 C, 1 M NaCl
So basically: yeast fitness (ln) at -0.2 or higher? That is Fulfilled. Lower than -0.2? That is Not fulfilled.

These recorded examples may help you get a feel for the data.
U2C G6A C27U A43C C66U A69G A70U	Not fulfilled
G6A C27U C66A A69G A70U	Not fulfilled
G1A G6A C46U A70G C71U	Not fulfilled
G1A U2G G6A C27U A69G A70U	Not fulfilled
G1A G6U A43C C46U C66U A70U C71U	Not fulfilled

Data request: Decide: is the reported value of yeast fitness (ln) for U2G G6U A69G A70U equal to or greater than -0.2?
Data returned: Fulfilled

Data request: Query U2G G6U C27U C46U C66A A69G C71U next
Data returned: Not fulfilled

Data request: Repeat for the following variant: G1A G6A A43C C66U A70G
Data returned: Not fulfilled

Data request: For U2C G6A C46U C66U A70U then?
Data returned: Fulfilled

Data request: Next variant: G6A C27U C46U C66U A69G A70U C71U
Data returned: Not fulfilled

Data request: Request: A43C C46U C66U A69G
Data returned: Fulfilled

Data request: Entry to check: U2G G6U C27U A43C C66A A69G A70G
Data returned: Not fulfilled

Data request: Another: U2C G6U C46U C66U A69G A70G
Data returned: Fulfilled

Data request: Query U2G C27U C66U A69G A70U next
Data returned: Not fulfilled

Data request: Same for C27U A70G C71U
Data returned: Not fulfilled

Data request: And the next one, G6A C27U C46U A69G A70U ?
Data returned: Not fulfilled

Data request: Proceed to G1A G6A C66U A70G C71U
Data returned: Fulfilled

Data request: Another variant to look at: G1A U2G A43C C66A C71U
Data returned: Not fulfilled

Data request: Okay, and U2G G6A C27U A43C A70G C71U ?
Data returned: Not fulfilled

Data request: Thanks! And U2G C27U C66A A70U ?
Data returned: Fulfilled

Data request: Moving on to U2G G6U C27U A43C C66A A70U C71U
Data returned: Not fulfilled

Data request: What do you get for U2G C27U A43C C46U C66A C71U ?
Data returned: Fulfilled

Data request: How about this variant: U2G C27U A43C C46U C66U A70U C71U
Data returned: Not fulfilled

Data request: Request: U2C G6U C27U C66U C71U
Data returned: Not fulfilled

Data request: Do the same for G1A A70U C71U please
Data returned: Fulfilled

Data request: Now the variant G1A C46U C66A A70G C71U
Data returned: Fulfilled

Data request: Would you mind doing G6U C27U A43C C46U A70U C71U as well?
Data returned: Not fulfilled

Data request: Cool, now G1A U2C G6U C46U A70U
Data returned: Fulfilled

Data request: Queued: U2G G6U C46U C66U
Data returned: Fulfilled

Data request: Please answer likewise for G1A U2G G6A C27U C46U C66U A70G
Data returned: Fulfilled

Data request: Entry to check: G6A C66U A69G
Data returned: Fulfilled

Data request: Another variant: U2G G6U C46U A69G A70G C71U
Data returned: Not fulfilled
